System: LTBP1-proTGFβ1, LTBP3-proTGFβ1, GARP-proTGFβ1 and LRRC33-proTGFβ1 complexes
experiment notes: BLI (OCTET), binding profile and bias across the four complexes
Design: species or system human
assay context: ratio of average KD cell-associated / matrix-associated
measured parameter: (H) G/D (fold bias) (fold)
Enter your answer as a number in fold; do not include the unit.

State, in one line, measured (H) G/D (fold bias) of Ab33: proTGFβ1 antibody; VH SEQ ID NO: 141, VL SEQ ID NO: 15 (antibody, V domains shown) VH: EVQLVESGGGLVQPGGSLRLSCAASGFTFSSFSMNWVRQAPGKGLEWVSYISPSADTIYYADSVKGRFTISRDNAKNTLYLQMNSLRAEDTAVYYCAHGVLDYGDMLDPWGQGTLVTVSS VL: DIQMTQSPSSLSASVGDRVTITCQASQDITNYLNWYQQKPGKAPKLLIYDASNLETGVPSRFSGSGSGTDFTFTISSLQPEDIATYYCQQADNHPPWTFGGGTKVEIK 2.083

Others:
State, in one line, measured (H) G/D (fold bias) of Ab21: proTGFβ1 antibody; VH SEQ ID NO: 129, VL SEQ ID NO: 15 (antibody, V domains shown) VH: EVQLVESGGGLVQPGGSLRLSCAASGFTFSSFSMDWVRQAPGKGLEWVSYISPDASTIYYADSVKGRFTISRDNAKNSLYLQMNSLRAEDTAVYYCARGVLDYGDMLDPWGQGTLVTVSS VL: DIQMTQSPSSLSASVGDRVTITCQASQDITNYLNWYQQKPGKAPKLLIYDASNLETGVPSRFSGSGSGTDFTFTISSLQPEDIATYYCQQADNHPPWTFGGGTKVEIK 2.613

State, in one line, measured (H) G/D (fold bias) of Ab26: proTGFβ1 antibody; VH SEQ ID NO: 134, VL SEQ ID NO: 15 (antibody, V domains shown) VH: EVQLVESGGGLVQPGGSLRLSCAASGFTFSSFSMDWVRQAPGKGLEWVSYISPDASTIYYADSVKGRFTISRDNAKNTLYLQMNSLRAEDTAVYYCARGVLDYGDMLDPWGQGTLVTVSS VL: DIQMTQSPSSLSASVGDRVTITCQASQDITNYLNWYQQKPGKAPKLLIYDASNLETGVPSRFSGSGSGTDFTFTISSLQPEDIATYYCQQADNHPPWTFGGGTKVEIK 2.500
